Reference source for all entries: the supplement of paper PMC10266784

B1: library; numbered along this chain (parent)
chain: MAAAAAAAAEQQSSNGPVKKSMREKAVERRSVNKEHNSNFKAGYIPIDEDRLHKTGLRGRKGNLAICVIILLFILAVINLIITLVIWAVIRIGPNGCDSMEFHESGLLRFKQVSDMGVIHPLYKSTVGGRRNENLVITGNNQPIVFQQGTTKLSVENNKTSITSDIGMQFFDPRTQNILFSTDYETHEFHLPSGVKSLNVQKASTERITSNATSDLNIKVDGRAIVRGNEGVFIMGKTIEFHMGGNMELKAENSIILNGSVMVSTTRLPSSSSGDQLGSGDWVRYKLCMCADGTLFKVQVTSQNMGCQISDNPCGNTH

- Variants of: B1
- MEASUREMENT_NOTES: SGCB cell-surface expression functional score (HA stain, bin4 vs bin1, normalised to synonymous) (log10 ratio); higher = more cell-surface SGCB (functional)
Rule: SGCB cell-surface expression functional score (log10) under -0.1 gives Condition not met, otherwise Condition met.

| MUTATION | DISCRETE_LABEL |
| --- | --- |
| I82N | Condition not met |
| R130I | Condition met |
| E240F | Condition met |
| D115R | Condition not met |
| A6G | Condition met |

Form field: SGCB cell-surface expression functional score (log10) at least -0.1? Entry: "A212R" Condition not met

Form field: SGCB cell-surface expression functional score (log10) at least -0.1? Entry: "A42I" Condition not met

Form field: SGCB cell-surface expression functional score (log10) at least -0.1? Entry: "Q303T" Condition not met

Form field: SGCB cell-surface expression functional score (log10) at least -0.1? Entry: "P94F" Condition met

Form field: SGCB cell-surface expression functional score (log10) at least -0.1? Entry: "M235F" Condition met

Form field: SGCB cell-surface expression functional score (log10) at least -0.1? Entry: "L191Q" Condition not met
